Target or system Prostaglandin G/H synthase 1 (Ovis aries, UniProt P05979); metric pIC50; compiled from varied reports.
Lab note: report pIC50 as minus log10 of the concentration in molar units, number only.

Some solved cases for reference:
# COMPOUND_STRUCTURE, pIC50
rows = [
    ("Oc1ccc(-n2cc(-c3ccc(O)cc3Cl)nc2-c2ccc(O)cc2Cl)cc1", 5.08),
    ("C/C(=N\\NC(N)=O)c1nnn(-c2ccc(Cl)cc2)c1C", 5.25),
]

Q) Name the recorded pIC50 of "COc1ccc(-c2cc(C(F)(F)F)nn2-c2ccc(S(N)(=O)=O)c(CNC(C)=O)c2)cc1" , assay system Prostaglandin G/H synthase 1 (Ovis aries, UniProt P05979).
A) 4.00
